The reader will find pKi measurements below, all made with Neuronal acetylcholine receptor subunit alpha-9 (Rattus norvegicus).
Sequence (P43144 whole entry): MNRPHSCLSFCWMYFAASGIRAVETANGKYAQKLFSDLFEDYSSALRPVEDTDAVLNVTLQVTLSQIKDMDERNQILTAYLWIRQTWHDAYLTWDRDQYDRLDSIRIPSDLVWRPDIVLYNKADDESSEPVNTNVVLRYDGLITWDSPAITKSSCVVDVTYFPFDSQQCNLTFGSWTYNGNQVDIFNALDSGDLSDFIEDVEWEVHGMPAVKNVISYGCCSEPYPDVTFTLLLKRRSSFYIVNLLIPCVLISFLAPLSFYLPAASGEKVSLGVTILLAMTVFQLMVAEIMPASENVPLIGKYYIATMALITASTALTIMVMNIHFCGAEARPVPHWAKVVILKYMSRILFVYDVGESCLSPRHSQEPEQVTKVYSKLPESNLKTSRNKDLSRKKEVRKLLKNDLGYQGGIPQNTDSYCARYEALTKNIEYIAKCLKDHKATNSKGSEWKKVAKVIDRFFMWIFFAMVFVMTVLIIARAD
Note on pKi: it is the negative log10 of concentration, concentration in mol/L.

Query: For the molecule `O=c1cccc2n1C[C@H]1CNC[C@H]2C1` , what pKi is on record?
Result: 6.72

Query: For the molecule `c1cncc(OC[C@@H]2CCN2)c1` , what pKi is on record?
Result: 6.49

Query: For the molecule Ic1ccc(C2CC3CCC2N3)cn1 (stereo not drawn) [IPH] , what pKi is on record?
Result: 8.19

----------
- Experimental target: Neuronal acetylcholine receptor subunit alpha-7 (Rattus norvegicus, UniProt Q05941)
- Sequence (Q05941 whole entry): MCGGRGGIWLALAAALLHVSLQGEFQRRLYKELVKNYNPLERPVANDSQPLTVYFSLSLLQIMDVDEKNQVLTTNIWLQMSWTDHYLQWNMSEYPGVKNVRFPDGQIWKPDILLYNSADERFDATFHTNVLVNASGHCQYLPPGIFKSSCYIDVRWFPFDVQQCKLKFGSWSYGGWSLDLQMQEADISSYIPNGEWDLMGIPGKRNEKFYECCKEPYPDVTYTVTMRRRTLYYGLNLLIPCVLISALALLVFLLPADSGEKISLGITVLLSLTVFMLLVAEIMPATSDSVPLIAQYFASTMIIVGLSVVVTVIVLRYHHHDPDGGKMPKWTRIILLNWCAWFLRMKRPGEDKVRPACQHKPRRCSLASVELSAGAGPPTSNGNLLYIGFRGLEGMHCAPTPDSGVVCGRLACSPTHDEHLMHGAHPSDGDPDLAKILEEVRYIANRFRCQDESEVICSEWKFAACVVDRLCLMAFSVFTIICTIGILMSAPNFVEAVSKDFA
Endpoint name: Ki (nM)
The figure you give is taken to be in nM; do not add the unit.

Some compounds with recorded Ki:
compound="Ic1ccc(C2CC3CCC2N3)cn1 (stereo not drawn) [IPH]" experimental_target="Neuronal acetylcholine receptor subunit alpha-7 (Rattus norvegicus, UniProt Q05941)" unit_spec=nM measurement=30
compound=c1cncc(OC[C@@H]2CCN2)c1 experimental_target="Neuronal acetylcholine receptor subunit alpha-7 (Rattus norvegicus, UniProt Q05941)" unit_spec=nM measurement=17

Attention now shifts to the item below.
Query: For the compound `O=c1cccc2n1C[C@H]1CNC[C@H]2C1` , what Ki is on record?
Result: 260

The values you see were collected from BindingDB's records for doi:10.1124/mol.57.3.642.
